# assayed target: PLK1 (Homo sapiens, UniProt P53350)
# Sequence (P53350 whole entry): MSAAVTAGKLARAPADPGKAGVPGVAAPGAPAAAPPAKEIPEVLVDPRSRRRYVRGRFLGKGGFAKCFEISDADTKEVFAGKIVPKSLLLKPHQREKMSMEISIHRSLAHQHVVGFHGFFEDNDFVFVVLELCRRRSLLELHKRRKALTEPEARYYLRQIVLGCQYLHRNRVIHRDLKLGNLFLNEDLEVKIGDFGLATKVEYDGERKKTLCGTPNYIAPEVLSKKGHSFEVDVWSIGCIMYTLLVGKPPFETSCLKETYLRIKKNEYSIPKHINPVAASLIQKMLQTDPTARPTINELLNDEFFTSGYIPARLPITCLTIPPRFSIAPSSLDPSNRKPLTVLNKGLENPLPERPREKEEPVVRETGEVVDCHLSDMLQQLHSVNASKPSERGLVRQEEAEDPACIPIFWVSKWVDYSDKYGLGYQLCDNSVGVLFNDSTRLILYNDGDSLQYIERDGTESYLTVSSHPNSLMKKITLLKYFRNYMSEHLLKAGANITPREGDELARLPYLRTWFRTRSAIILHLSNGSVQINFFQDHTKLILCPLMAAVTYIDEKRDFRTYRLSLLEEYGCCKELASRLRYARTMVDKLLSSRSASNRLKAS
# protocol: PLK1 protein kinase assay (CDC25C phosphorylation, [γ-32P]-ATP)
# Type: biochemical
# condition context: Table 3; read-out: PLK1 IC50
IC50: recorded values

> print(dat)
                            compound.string  attribute.measured  value.measured
1  COc1cc(C(=O)NN2CCN(CCO)CC2)ccc1Nc1ncc2c(n1)N(C1CCCC1)CC1(CC1)C(=O)N2C                IC50        < 100 nM

The recorded IC50 for `CCN1CCN([C@H]2CC[C@H](NC(=O)c3ccc(Nc4ncc5c(n4)N(C4CCCC4)CC4(CC4)C(=O)N5C)c(OC)c3)CC2)CC1` is < 100 nM

The recorded IC50 for `COc1cc(C(=O)N[C@H]2CC[C@H](N3CCN(CC4CC4)CC3)CC2)ccc1Nc1ncc2c(n1)N(C1CCCC1)CCC(=O)N2C` is < 100 nM

###

IC50: recorded values
# assayed target: PLK1 (Homo sapiens)
# protocol: PLK1 protein kinase assay (CDC25C phosphorylation, [γ-32P]-ATP)
# Type: biochemical
# condition context: Table 2, PLK1 IC50; class symbols; read-out: PLK1 IC50

Example entries and their recorded answers appear below.
> print(dat)
                                   compound  attribute.measured  value.measured
1  Cc1cc(Nc2ncc3c(n2)N(C2CCCC2)CCC(=O)N3C)ccc1NC(=O)C(C)(C)C                IC50      < 10000 nM
2  COc1cc(C(=O)NC2CCCC2)ccc1Nc1ncc2c(n1)N(CC1CC1)CCC(=O)N2C                IC50       < 1000 nM
3  CN1C(=O)CCN(C2CCCC2)c2nc(NCc3ccccc3)ncc21                IC50       < 1000 nM
4  COc1ccc(Nc2ncc3c(n2)N(C2CCCC2)CCC(=O)N3C)c(OC)c1                IC50        < 100 nM
5  COc1cc(C(=O)NC2CCN(CC(=O)O)CC2)ccc1Nc1ncc2c(n1)N(C1CCCC1)CCC(=O)N2C                IC50       < 1000 nM

Here's the next entry for you.
PLK1 (Homo sapiens) IC50 of `CNC(=O)c1ccc(Nc2ncc3c(n2)N(C)CCC(=O)N3C)c(OC)c1` is < 10000 nM

###

IC50: recorded values
# assayed target: AA (Homo sapiens)
# Sequence (O14965 1-403): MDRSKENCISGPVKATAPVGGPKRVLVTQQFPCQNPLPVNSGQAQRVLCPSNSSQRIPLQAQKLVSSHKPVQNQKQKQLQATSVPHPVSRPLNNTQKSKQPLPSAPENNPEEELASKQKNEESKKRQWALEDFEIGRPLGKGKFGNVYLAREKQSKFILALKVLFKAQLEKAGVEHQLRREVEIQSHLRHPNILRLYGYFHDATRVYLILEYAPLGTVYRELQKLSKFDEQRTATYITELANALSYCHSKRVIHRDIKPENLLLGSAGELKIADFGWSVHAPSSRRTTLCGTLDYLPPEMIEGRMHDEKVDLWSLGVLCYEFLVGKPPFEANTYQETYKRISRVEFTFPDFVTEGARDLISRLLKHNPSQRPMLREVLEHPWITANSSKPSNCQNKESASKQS
# protocol: AA IC50 (Table 1; no method given)
# Assay type: biochemical
# condition context: Table 2, AurA IC50; class symbols; read-out: AurA IC50

Example entries and their recorded answers appear below.
> print(dat)
                                   molecule  value.measured
1  Cc1cc(Nc2ncc3c(n2)N(c2ccc(N4CCOCC4)cc2)CCC(=O)N3C)ccc1NC(=O)C1CC1 [compound 337]        < 100 nM
2  CN1C(=O)CCN(C2CCCC2)c2nc(Nc3ccc4c(c3)CC(=O)N4)ncc21 [compound 173]        < 100 nM
3  CN1C(=O)CCN(C2CCCC2)c2nc(Nc3cccc(S(=O)(=O)NCc4ccccc4)c3)ncc21 [compound 110]       < 1000 nM
4  Cc1cc(Nc2ncc3c(n2)N(c2ccc(C(C)(C)C)cc2)CCC(=O)N3C)ccc1NC(=O)C1CC1 [compound 342]      < 10000 nM
5  CCC(CC)N1CCC(=O)N(CC)c2cnc(Nc3ccc4c(c3)CS(=O)(=O)C4)nc21 [compound 120]        < 100 nM
6  CN1CCC(NS(=O)(=O)c2ccc(Nc3ncc4c(n3)N(C3CCCC3)CCC(=O)N4C)cc2)CC1 [compound 61]       < 1000 nM

The recorded IC50 for CN1C(=O)CCN(CC2CC2)c2nc(Nc3ccc4c(c3)CS(=O)(=O)C4)ncc21 [compound 114] is < 100 nM

The recorded IC50 for CC(=O)NCc1cccc(Nc2ncc3c(n2)N(C2CCCC2)CCC(=O)N3C)c1 [compound 90] is < 1000 nM

The recorded IC50 for CN1C(=O)CCN(c2ccccc2)c2nc(Nc3ccc4c(c3)CS(=O)(=O)C4)ncc21 [compound 75] is < 100 nM

The recorded IC50 for CCc1cc(C(=O)O)ccc1Nc1ncc2c(n1)N(C1CCCC1)CCC(=O)N2C [compound 192] is < 10000 nM

The recorded IC50 for CN1C(=O)CCN(C2CCCC2)c2nc(Nc3ccc(C(=O)N4CCOCC4)cc3)ncc21 [compound 293] is < 100 nM

###

IC50: recorded values
# assayed target: PLK1 (Homo sapiens, UniProt P53350)
# protocol: PLK1 protein kinase assay (CDC25C phosphorylation, [γ-32P]-ATP)
# Type: biochemical
# condition context: Table 2, PLK1 IC50; class symbols; read-out: PLK1 IC50

Example entries and their recorded answers appear below.
> print(dat)
                                   molecule  value.measured
1  CN1C(=O)CCN(C2CCCC2)c2nc(NCc3cccc4c3OCCO4)ncc21 [compound 128]       < 1000 nM
2  CN1C(=O)CCN(C2CCCC2)c2nc(NCc3cc4ccccc4s3)ncc21 [compound 129]      < 10000 nM
3  COc1cc(C(=O)NC2CCN(C)CC2)ccc1Nc1ncc2c(n1)N(CCC(=O)NCCO)CCC(=O)N2C [compound 223]      < 10000 nM
4  COc1cc(C(=O)NC2CCNCC2)ccc1Nc1ncc2c(n1)N(C1CCCC1)CCC(=O)N2C [compound 206]        < 100 nM

The recorded IC50 for CCN(CC)CCNC(=O)c1ccc(Nc2ncc3c(n2)N(C2CCCC2)CC2(CC2)C(=O)N3C)c(OC)c1 [compound 182] is < 100 nM

The recorded IC50 for CCN(CC)CCNC(=O)c1ccc(Nc2ncc3c(n2)N(CC(C)C)CCC(=O)N3C)c(OC)c1 [compound 307] is < 1000 nM

The recorded IC50 for COc1ccc(N2CCC(=O)N(C)c3cnc(Nc4ccc(C(=O)NC5CC(C)(C)N(C)C(C)(C)C5)cc4OC)nc32)cc1 [compound 318] is < 1000 nM

###

pIC50: recorded values
# assayed target: UniProt:O14965
# protocol: AA IC50 (Table 1; no method given)
# Assay type: biochemical
# condition context: Table 2, AurA IC50; class symbols; read-out: AurA IC50
pIC50: −log10 of the molar value.

Example entries and their recorded answers appear below.
> print(dat)
                                   compound  value.measured
1  CN1C(=O)CCN(Cc2ccccc2)c2nc(Nc3ccc4c(c3)CS(=O)(=O)C4)ncc21 [compound 82]          > 6.00
2  CC(=O)Nc1ccc(Nc2ncc3c(n2)N(C2CCCC2)CCC(=O)N3C)cc1C [compound 285]          > 7.00
3  CN1C(=O)CCN(C2CCCC2)c2nc(Nc3ccc4c(c3)C=CS4(=O)=O)ncc21 [compound 289]          > 7.00

The recorded pIC50 for COc1ccc(N2CCC(=O)N(C)c3cnc(Nc4ccc5c(c4)CS(=O)(=O)C5)nc32)cc1 [compound 332] is > 7.00

###

pIC50: recorded values
# assayed target: UniProtKB P53350
# protocol: PLK1 protein kinase assay (CDC25C phosphorylation, [γ-32P]-ATP)
# Format: biochemical
# condition context: Table 2, PLK1 IC50; class symbols; read-out: PLK1 IC50
pIC50: −log10 of the molar value.

Example entries and their recorded answers appear below.
> print(dat)
                                   compound  value.measured
1  CCC(O)CNC(=O)c1ccc(Nc2ncc3c(n2)N(C2CCCC2)CCC(=O)N3C)c(OC)c1 (stereo not shown)          > 6.00
2  CN1C(=O)CCN(C2CCCC2)c2nc(Nc3ccc4sc(C(=O)O)cc4c3)ncc21 [compound 296]          > 6.00
3  COc1cc(C(=O)NCCCN(C)C)ccc1Nc1ncc2c(n1)N(C1CCCC1)CCC(=O)N2C          > 6.00
4  COc1cc(C(=O)NC2CCN(C)CC2)ccc1Nc1ncc2c(n1)N(C(C)(C)C)CCC(=O)N2C          > 5.00
5  CONC(=O)c1ccc(Nc2ncc3c(n2)N(C2CCCC2)CCC(=O)N3C)c(OC)c1          > 6.00

The recorded pIC50 for `Cc1c(Nc2ncc3c(n2)N(C2CCCC2)CCC(=O)N3C)cccc1C(=O)NC1CCN(C)CC1` is > 5.00

The recorded pIC50 for `CCOc1cc(C(=O)NC2CCN(C)CC2)ccc1Nc1ncc2c(n1)N(C1CCCC1)CCC(=O)N2C` is > 6.00

The recorded pIC50 for `CN1CCC(NC(=O)c2ccc(Nc3ncc4c(n3)N(C3CCCC3)CC3(CC3)C(=O)N4C)cc2)CC1` is > 6.00

The recorded pIC50 for CN1C(=O)CCN(C2CCCC2)c2nc(Nc3ccc4c(c3)OCC(=O)N4)ncc21 [compound 298] is > 6.00

The recorded pIC50 for `CN1C(=O)CCN(C2CCCC2)c2nc(NCc3ccco3)ncc21` is > 5.00

The recorded pIC50 for `COc1cc(Nc2ncc3c(n2)N(C2CCCC2)CCC(=O)N3C)ccc1C(=O)NC1CCN(C)CC1` is > 6.00

The recorded pIC50 for CN1C(=O)CCN(C2CCCC2)c2nc(Nc3ccc(C(=O)N4CCOCC4)cc3)ncc21 [compound 297] is > 5.00

The recorded pIC50 for `CCCCN1CCC(=O)N(C)c2cnc(Nc3ccc(C(=O)NC4CCN(C)CC4)cc3OC)nc21` is > 6.00
